Test: Apparent permeability in MDCK vector control cells at 5 uM
Conditions: dog
Quick rule: Papp at 5 µM of at least 30 ×10⁻⁶ cm/s means TRUE, below that means FALSE.

Solved cases below.
| Compound | Class Assignment |
| --- | --- |
| N#Cc1cc(C(F)(F)F)ccc1N1CCOc2cc(S(=O)(=O)Nc3nccs3)c(Cl)cc21 | FALSE |
| N#Cc1cc(C(F)(F)F)ccc1N1CCOc2cc(S(=O)(=O)Nc3ccncn3)ccc21 | FALSE |
| N#Cc1cc(C(F)(F)F)ccc1N1CCOc2cc(S(=O)(=O)Nc3ccno3)ccc21 | FALSE |

QUERY: hey, is Papp at 5 µM for this one >= 30 ×10⁻⁶ cm/s? `N#Cc1cc(C(F)(F)F)ccc1N1CCOc2cc(S(=O)(=O)Nc3nccs3)ccc21`
RESULT: FALSE

QUERY: Quick check: does `N#Cc1cc(C(F)(F)F)ccc1N1CCOc2cc(S(=O)(=O)Nc3nccs3)cc(F)c21` have Papp at 5 µM greater than or equal to 30 ×10⁻⁶ cm/s?
RESULT: FALSE

QUERY: Entry `N#Cc1cc(C(F)(F)F)ccc1N1CCOc2c1ccc(S(=O)(=O)Nc1nccs1)c2F` : is its Papp at 5 µM no less than 30 ×10⁻⁶ cm/s?
RESULT: TRUE

Cited source: ChEMBL document CHEMBL4052683
